Tested on: Providencia rettgeri
experiment.description: Minimum inhibitory concentration against Providencia rettgeri M-1771
Format: functional
test.conditions: Providencia rettgeri; read-out: MIC
// values below are reported MIC
Answer format: numeric, µg/mL implied, no suffix.

compound="NC1CN(c2c(F)cc3c(=O)c(C(=O)O)cn(C4CC4)c3c2F)CC1c1ccc(O)cc1 (trans isomer)" endpoint=MIC result_units=µg/mL measured_number=0.2
compound="NC1CN(c2nc3c(cc2F)c(=O)c(C(=O)O)cn3C2CC2)CC1c1ccccc1 (centres undefined)" endpoint=MIC result_units=µg/mL measured_number=0.4
compound="NCC1CN(c2c(F)c(N)c3c(=O)c(C(=O)O)cn(C4CC4)c3c2F)CC1c1ccccc1 (trans isomer)" endpoint=MIC result_units=µg/mL measured_number=0.1

We next turn to a different compound, shown below.
**Q:** Identify measured MIC corresponding to CN(C)c1ccc(C2CN(c3nc4c(cc3F)c(=O)c(C(=O)O)cn4C3CC3)CC2N)cc1 (trans isomer)
**A:** 0.4

###

System: Pseudomonas aeruginosa
experiment.description: Minimum inhibitory concentration against Pseudomonas aeruginosa UI-18
Type: functional
test.conditions: Pseudomonas aeruginosa; read-out: MIC
A collection of compounds and their measured MIC
Report the figure in µg/mL without appending any unit label.

// below: answered compounds
compound="NC1CN(c2c(F)cc3c(=O)c(C(=O)O)cn(C4CC4)c3c2F)CC1c1ccc(O)cc1 (trans isomer)" endpoint=MIC measured_number=1.6
compound="Nc1ccc(C2CN(c3c(F)cc4c(=O)c(C(=O)O)cn(C5CC5)c4c3F)CC2N)cc1 (trans isomer)" endpoint=MIC measured_number=0.8
compound="COc1ccc(C2CN(c3c(F)cc4c(=O)c(C(=O)O)cn(C5CC5)c4c3F)CC2N)cc1 (trans isomer)" endpoint=MIC measured_number=1.6

Shifting focus to the compound that follows.
**Q:** Tell me its MIC given CN(C)c1ccc(C2CN(c3nc4c(cc3F)c(=O)c(C(=O)O)cn4C3CC3)CC2N)cc1 (trans isomer) as the entry.
**A:** 3.1

###

Test system: Escherichia coli
experiment.description: Minimum inhibitory concentration against Escherichia coli Vogel
Assay type: functional
test.conditions: Escherichia coli; read-out: MIC
endpoint: MIC (µg/mL)
Field: numeric (µg/mL). Do not append units.

See these solved cases before continuing.
compound="NC1CN(c2c(F)cc3c(=O)c(C(=O)O)cn(C4CC4)c3c2F)CC1c1ccc(F)cc1 (trans isomer)" measured_number=0.1
compound="NCC1CN(c2nc3c(cc2F)c(=O)c(C(=O)O)cn3C2CC2)CC1c1ccco1 (trans isomer)" measured_number=0.1
compound="NCC1CN(c2c(F)c(N)c3c(=O)c(C(=O)O)cn(C4CC4)c3c2F)CC1c1ccccc1 (trans isomer)" measured_number=0.025
compound="NCC1CN(c2c(F)cc3c(=O)c(C(=O)O)cn(C4CC4)c3c2F)CC1c1ccc(N)cc1 (stereo not drawn)" measured_number=0.1
compound="NC1CN(c2cc3c(cc2F)c(=O)c(C(=O)O)cn3C2CC2)CC1C1CC1 (stereo not drawn)" measured_number=0.05

**Q:** Read off the recorded MIC for NCC1CN(c2nc3c(cc2F)c(=O)c(C(=O)O)cn3C2CC2)CC1c1ccc(N)cc1 (cis isomer)
**A:** 0.2

**Q:** // Input: COc1ccc(C2CN(c3nc4c(cc3F)c(=O)c(C(=O)O)cn4C3CC3)CC2N)cc1 (trans isomer) . Output its MIC only.
**A:** 0.1

**Q:** Fill in MIC for record CN(C)c1ccc(C2CN(c3nc4c(cc3F)c(=O)c(C(=O)O)cn4C3CC3)CC2N)cc1 (trans isomer)
**A:** 0.2

###

MIC values by entry
System: Streptococcus pyogenes
experiment.description: Minimum inhibitory concentration against Streptococcus pyogenes C-203
Type: functional
test.conditions: Streptococcus pyogenes; read-out: MIC
Number plus unit, in that order.

compound="NCC1CN(c2c(F)cc3c(=O)c(C(=O)O)cn(C4CC4)c3c2F)CC1c1ccc(N)cc1 (centres undefined)" assay_system="Streptococcus pyogenes" endpoint=MIC result="0.05 µg/mL"
compound="Nc1c(F)c(N2CC(N)C(c3ccccc3)C2)c(F)c2c1c(=O)c(C(=O)O)cn2C1CC1 (centres undefined)" assay_system="Streptococcus pyogenes" endpoint=MIC result="0.1 µg/mL"
compound="COc1ccc(C2CN(c3c(F)cc4c(=O)c(C(=O)O)cn(C5CC5)c4c3F)CC2N)cc1 (trans isomer)" assay_system="Streptococcus pyogenes" endpoint=MIC result="0.05 µg/mL"

Here is the next item to consider.
**Q:** Provide measured MIC value, entry: NCC1CN(c2c(F)c(N)c3c(=O)c(C(=O)O)cn(C4CC4)c3c2F)CC1c1ccccc1 (trans isomer)
**A:** 0.006 µg/mL

###

Tested on: Enterococcus faecalis
experiment.description: Minimum inhibitory concentration against […] MGH-2
Format: functional
test.conditions: Enterococcus faecalis; read-out: MIC
endpoint: MIC (µg/mL)
Number only, in µg/mL; omit the unit.

**Q:** For the molecule Nc1c(F)c(N2CC(N)C(c3ccccc3)C2)c(F)c2c1c(=O)c(C(=O)O)cn2C1CC1 (stereo not given) , give its measured MIC value.
**A:** 0.05

**Q:** For NCC1CN(c2nc3c(cc2F)c(=O)c(C(=O)O)cn3C2CC2)CC1c1ccccc1 (trans isomer) , write its MIC.
**A:** 0.025

**Q:** Please give measured MIC of the following entry: NCc1cccc(C2CN(c3nc4c(cc3F)c(=O)c(C(=O)O)cn4C3CC3)CC2N)c1 (trans isomer)
**A:** 0.8

**Q:** Identify measured MIC corresponding to NCC1CN(c2nc3c(cc2F)c(=O)c(C(=O)O)cn3C2CC2)CC1c1ccco1 (trans isomer)
**A:** 0.05

###

Tested on: Streptococcus pneumoniae
experiment.description: Minimum inhibitory concentration against Streptococcus pneumoniae SV-1
Format: functional
test.conditions: Streptococcus pneumoniae; read-out: MIC
endpoint: MIC (µg/mL)
State the answer as a number, implicitly in µg/mL.

Use the examples below as a reference point.
molecule="Nc1c(F)c(N2CC(N)C(c3ccccc3)C2)c(F)c2c1c(=O)c(C(=O)O)cn2C1CC1 (centres undefined)" endpoint=MIC result_units=µg/mL measured_number=0.05
molecule="CCOC(=O)C1CC1C1CN(c2nc3c(cc2F)c(=O)c(C(=O)O)cn3C2CC2)CC1N (trans isomer)" endpoint=MIC result_units=µg/mL measured_number=1.6
molecule="NC1CN(c2nc3c(cc2F)c(=O)c(C(=O)O)cn3C2CC2)CC1c1ccc(F)cc1 (trans isomer)" endpoint=MIC result_units=µg/mL measured_number=0.2

**Q:** Answer with the recorded MIC of NCC1CN(c2c(F)cc3c(=O)c(C(=O)O)cn(C4CC4)c3c2F)CC1c1ccc(N)cc1 (centres undefined) only.
**A:** 0.05

###

System: Enterococcus faecalis
experiment.description: Minimum inhibitory concentration against […] MGH-2
Type: functional
test.conditions: Enterococcus faecalis; read-out: MIC
Measured MIC values are reported for all entries that follow.
The answer is to be given in µg/mL; state only the numeric part.

For orientation, consider the following solved cases.
compound="NCC1CN(c2c(F)cc3c(=O)c(C(=O)O)cn(C4CC4)c3c2F)CC1c1ccco1 (stereo unspecified)" assay_system="Enterococcus faecalis" measured_number=0.013
compound="NCC1CN(c2c(F)c(N)c3c(=O)c(C(=O)O)cn(C4CC4)c3c2F)CC1c1ccccc1 (trans isomer)" assay_system="Enterococcus faecalis" measured_number=0.013
compound="NC1CN(c2nc3c(cc2F)c(=O)c(C(=O)O)cn3C2CC2)CC1c1ccc(F)cc1 (trans isomer)" assay_system="Enterococcus faecalis" measured_number=0.1
compound="NCC1CN(c2c(F)cc3c(=O)c(C(=O)O)cn(C4CC4)c3c2F)CC1c1ccc(N)cc1 (stereo unspecified)" assay_system="Enterococcus faecalis" measured_number=0.05
compound="NCC1CN(c2c(F)cc3c(=O)c(C(=O)O)cn(C4CC4)c3c2F)CC1c1ccccc1 (trans isomer)" assay_system="Enterococcus faecalis" measured_number=0.013
compound="NCC1CN(c2nc3c(cc2F)c(=O)c(C(=O)O)cn3C2CC2)CC1c1ccc(N)cc1 (cis isomer)" assay_system="Enterococcus faecalis" measured_number=0.1
compound="NC1CN(c2nc3c(cc2F)c(=O)c(C(=O)O)cn3C2CC2)CC1c1ccccc1 (stereo unspecified)" assay_system="Enterococcus faecalis" measured_number=0.2
compound="CCOC(=O)C1CC1C1CN(c2cc3c(cc2F)c(=O)c(C(=O)O)cn3C2CC2)CC1N (trans isomer)" assay_system="Enterococcus faecalis" measured_number=0.8
compound="Nc1c(F)c(N2CC(N)C(c3ccc(O)cc3)C2)c(F)c2c1c(=O)c(C(=O)O)cn2C1CC1 (trans isomer)" assay_system="Enterococcus faecalis" measured_number=0.05
compound="COc1ccc(C2CN(c3nc4c(cc3F)c(=O)c(C(=O)O)cn4C3CC3)CC2N)cc1 (trans isomer)" assay_system="Enterococcus faecalis" measured_number=0.2

**Q:** Give the measured MIC for CCOC(=O)C1CC1C1CN(c2nc3c(cc2F)c(=O)c(C(=O)O)cn3C2CC2)CC1N (trans isomer)
**A:** 1.6

**Q:** Please give the documented MIC of NCC1CN(c2c(F)c(N)c3c(=O)c(C(=O)O)cn(C4CC4)c3c2F)CC1c1ccc(N)cc1 (trans isomer)
**A:** 0.025

**Q:** Specify measured MIC for CC(C)c1ccc(C2CN(c3nc4c(cc3F)c(=O)c(C(=O)O)cn4C3CC3)CC2N)cc1 (trans isomer) .
**A:** 0.4

**Q:** Identify the reported MIC for the following entry. COc1ccccc1C1CN(c2c(F)cc3c(=O)c(C(=O)O)cn(C4CC4)c3c2F)CC1N (trans isomer)
**A:** 0.1

**Q:** Specify MIC for NCc1cccc(C2CN(c3c(F)cc4c(=O)c(C(=O)O)cn(C5CC5)c4c3F)CC2CN)c1 (trans isomer) and stop.
**A:** 0.8

**Q:** Check the records and state MIC for CC(C)c1ccc(C2CN(c3c(F)cc4c(=O)c(C(=O)O)cn(C5CC5)c4c3F)CC2N)cc1 (trans isomer)
**A:** 0.2
